- Target of assay: T1, recombinant human regenerating islet-derived protein 1α (REG1A) (human, UniProt P05451 23-166, limits assumed)
- T1 construct: also called recombinant human REG1A; recombinant REG1A
- T1 sequence (looked up): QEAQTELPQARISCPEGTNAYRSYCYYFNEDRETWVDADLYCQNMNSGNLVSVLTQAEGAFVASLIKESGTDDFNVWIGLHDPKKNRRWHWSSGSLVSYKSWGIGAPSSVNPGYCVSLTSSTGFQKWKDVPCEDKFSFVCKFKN
- Experimental details: sandwich ELISA; capture 4H8F1; REG1A 100.00 ng/mL
Recorded OD value for the following binders
Answer format: number, then unit.

Entry antibody 4H8F1 (antibody, V domains shown, Mouse monoclonal from hybridoma, stated mouse IgG1/Kappa; also called 4H8F1-biotin; Antibody 1) VH: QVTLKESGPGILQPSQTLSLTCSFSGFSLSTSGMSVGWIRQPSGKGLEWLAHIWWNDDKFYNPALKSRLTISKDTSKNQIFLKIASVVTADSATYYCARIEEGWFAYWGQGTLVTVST VL: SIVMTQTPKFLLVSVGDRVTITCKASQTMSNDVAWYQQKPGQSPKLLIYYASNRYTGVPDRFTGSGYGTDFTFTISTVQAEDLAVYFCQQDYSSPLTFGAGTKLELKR — recorded OD value = 0.09 OD

Entry antibody 12F12A10 (antibody, V domains shown, Mouse monoclonal from hybridoma, stated mouse IgG1/Kappa; also called 12F12A10-biotin; Antibody 2) VH: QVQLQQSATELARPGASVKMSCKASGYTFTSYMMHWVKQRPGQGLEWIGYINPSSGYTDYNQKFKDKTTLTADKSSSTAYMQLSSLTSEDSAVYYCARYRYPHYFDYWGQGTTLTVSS VL: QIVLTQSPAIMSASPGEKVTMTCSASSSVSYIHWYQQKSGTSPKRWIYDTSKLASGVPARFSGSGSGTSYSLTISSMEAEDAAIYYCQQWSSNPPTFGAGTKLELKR — recorded OD value = 4.33 OD

Entry antibody 21B11D2 (antibody, mouse IgG2b, kappa, V domains shown, Mouse monoclonal from hybridoma, stated mouse IgG1/Kappa; Used unlabelled as capture and biotin-labelled as detection antibody; also called 21B11D2-biotin) VH: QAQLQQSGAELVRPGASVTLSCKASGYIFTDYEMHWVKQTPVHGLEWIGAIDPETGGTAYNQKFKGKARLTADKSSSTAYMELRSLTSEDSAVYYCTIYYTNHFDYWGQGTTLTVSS VL: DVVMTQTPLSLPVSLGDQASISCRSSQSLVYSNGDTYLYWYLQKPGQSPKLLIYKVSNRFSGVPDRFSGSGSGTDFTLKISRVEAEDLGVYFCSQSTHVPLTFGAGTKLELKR — recorded OD value = 0.08 OD

Entry antibody 11D11B11 (antibody, mouse IgG2a, kappa, V domains shown, Mouse monoclonal from hybridoma, stated mouse IgG1/Kappa; Used unlabelled as capture and biotin-labelled as detection antibody; also called 11D11B11-biotin) VH: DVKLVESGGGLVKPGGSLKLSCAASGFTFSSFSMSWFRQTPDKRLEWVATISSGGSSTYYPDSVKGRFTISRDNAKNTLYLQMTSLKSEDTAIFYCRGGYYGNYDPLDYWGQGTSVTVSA VL: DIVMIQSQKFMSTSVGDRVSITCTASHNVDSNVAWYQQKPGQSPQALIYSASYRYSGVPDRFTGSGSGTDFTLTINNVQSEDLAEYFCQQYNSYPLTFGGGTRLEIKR — recorded OD value = 4.24 OD
